- System: nr0b2
- testMethodNotes: Real-time quantitative PCR of PLsis marker gene expression
- Format: cell-based, human
- conditionContext: HepG2 cells, 24 hr exposure, relative value, control group = 1.0, GAPDH internal standard, n=3
Hi! Could you tag entries with expression variation rate nr0b2 below 1 as 1, and those at or above as 0? Much appreciated.

molecule: CNCCC(Oc1ccc(C(F)(F)F)cc1)c1ccccc1 (centres unmarked)
categoryLabel: 0
--
molecule: CN(C)CCCN1c2ccccc2CCc2ccccc21
categoryLabel: 0
--
molecule: CC(=O)Nc1ccc(O)cc1
categoryLabel: 1
--
molecule: CN(C)C/C=C(/c1ccc(Br)cc1)c1cccnc1
categoryLabel: 0
--
molecule: CC1COc2c(N3CCN(C)CC3)c(F)cc3c(=O)c(C(=O)O)cn1c23 (centres unmarked)
categoryLabel: 1

----------
- System: fabp1
- testMethodNotes: Real-time quantitative PCR of PLsis marker gene expression
- Type: cell-based, human
- conditionContext: HepG2 cells, 24 hr exposure, relative value, control group = 1.0, GAPDH internal standard, n=3

compound: CN(C)CCCN1c2ccccc2Sc2ccc(Cl)cc21
expression variation rate fabp1: 2.56
//
compound: CN[C@H]1CC[C@@H](c2ccc(Cl)c(Cl)c2)c2ccccc21
expression variation rate fabp1: 4.14
//
compound: CN(C)CCCN1c2ccccc2CCc2ccccc21
expression variation rate fabp1: 2.45
//
compound: CC(C)N(CCC(C(N)=O)(c1ccccc1)c1ccccn1)C(C)C (stereo not shown) [disopyramide]
expression variation rate fabp1: 1.02
//
compound: N=C(N)c1ccc(OCCCCCOc2ccc(C(=N)N)cc2)cc1
expression variation rate fabp1: 0.15
//
compound: Cc1cc(NS(=O)(=O)c2ccc(N)cc2)no1
expression variation rate fabp1: 0.85
//
compound: C[C@H]1COc2c(N3CCN(C)CC3)c(F)cc3c(=O)c(C(=O)O)cn1c23
expression variation rate fabp1: 0.88
//
compound: CNS(=O)(=O)Cc1ccc2[nH]cc(CCN(C)C)c2c1
expression variation rate fabp1: 1.01
//
compound: CN(C)C/C=C(/c1ccc(Br)cc1)c1cccnc1
expression variation rate fabp1: 1.42
//
compound: CC1COc2c(N3CCN(C)CC3)c(F)cc3c(=O)c(C(=O)O)cn1c23 (stereo not shown)
expression variation rate fabp1: 0.75
//
compound: CN1CCN(C(c2ccccc2)c2ccc(Cl)cc2)CC1 (stereo not shown)
expression variation rate fabp1: 2.62
//
compound: O=C(NCC1CCCCN1)c1cc(OCC(F)(F)F)ccc1OCC(F)(F)F (stereo not shown) [flecainide]
expression variation rate fabp1: 1.50
//
compound: Clc1ccccc1CNCC1CCC(CNCc2ccccc2Cl)CC1 (stereo not shown)
expression variation rate fabp1: 3.16

----------
- Test system: slc2a3
- testMethodNotes: Real-time quantitative PCR of PLsis marker gene expression
- Format: cell-based, human
- conditionContext: HepG2 cells, 24 hr exposure, relative value, control group = 1.0, GAPDH internal standard, n=3
Overview of recorded expression variation rate slc2a3 for various compounds

compound: O=C(CCCN1CCC(O)(c2ccc(Cl)cc2)CC1)c1ccc(F)cc1
expression variation rate slc2a3: 0.44
//
compound: Clc1ccccc1CNCC1CCC(CNCc2ccccc2Cl)CC1 (stereo not shown)
expression variation rate slc2a3: 0.22
//
compound: C[C@H]1COc2c(N3CCN(C)CC3)c(F)cc3c(=O)c(C(=O)O)cn1c23
expression variation rate slc2a3: 1.07
//
compound: C=C[C@H]1C[N@@]2CC[C@H]1C[C@@H]2[C@@H](O)c1ccnc2ccc(OC)cc12
expression variation rate slc2a3: 0.37
//
compound: CC(=O)N1CCN(c2ccc(OCC3COC(Cn4ccnc4)(c4ccc(Cl)cc4Cl)O3)cc2)CC1 (stereo not shown)
expression variation rate slc2a3: 0.48
//
compound: CC[C@H]1OC(=O)[C@H](C)[C@@H](O[C@H]2C[C@@](C)(OC)[C@@H](O)[C@H](C)O2)[C@H](C)[C@@H](O[C@@H]2O[C@H](C)C[C@H](N(C)C)[C@H]2O)[C@](C)(O)C[C@@H](C)C(=O)[C@H](C)[C@@H](O)[C@]1(C)O
expression variation rate slc2a3: 0.73
//
compound: CN1CCN(C(c2ccccc2)c2ccc(Cl)cc2)CC1 (stereo not shown)
expression variation rate slc2a3: 0.20

----------
- System: lss
- testMethodNotes: Real-time quantitative PCR of PLsis marker gene expression
- Type: cell-based, human
- conditionContext: HepG2 cells, 24 hr exposure, relative value, control group = 1.0, GAPDH internal standard, n=3

compound: C[C@H]1COc2c(N3CCN(C)CC3)c(F)cc3c(=O)c(C(=O)O)cn1c23
expression variation rate lss: 0.75
//
compound: CN(C)CCC=C1c2ccccc2CCc2ccccc21
expression variation rate lss: 1.79
//
compound: CN[C@H]1CC[C@@H](c2ccc(Cl)c(Cl)c2)c2ccccc21
expression variation rate lss: 3.91
//
compound: CN(C)CCCN1c2ccccc2CCc2ccccc21
expression variation rate lss: 2.69
//
compound: CC(C)NCC(O)c1ccc(NS(C)(=O)=O)cc1 (stereo not shown)
expression variation rate lss: 0.88
//
compound: N=C(N)c1ccc(OCCCCCOc2ccc(C(=N)N)cc2)cc1
expression variation rate lss: 0.52
//
compound: C1CCC(C(CC2CCCCN2)C2CCCCC2)CC1 (stereo not shown)
expression variation rate lss: 3.10
//
compound: CN(C)C/C=C(/c1ccc(Br)cc1)c1cccnc1
expression variation rate lss: 1.05
//
compound: CC/C(=C(\c1ccccc1)c1ccc(OCCN(C)C)cc1)c1ccccc1
expression variation rate lss: 3.01
//
compound: CCCCc1oc2ccccc2c1C(=O)c1cc(I)c(OCCN(CC)CC)c(I)c1
expression variation rate lss: 1.82

----------
Measured expression variation rate serpina3, listed per entry.
- Tested on: serpina3
- testMethodNotes: Real-time quantitative PCR of PLsis marker gene expression
- Assay type: cell-based, human
- conditionContext: HepG2 cells, 24 hr exposure, relative value, control group = 1.0, GAPDH internal standard, n=3
valueType: expression variation rate serpina3

compound: C1CCC(C(CC2CCCCN2)C2CCCCC2)CC1 (centres unmarked)
resultNumber: 2.50
//
compound: CC(C)N(CCC(C(N)=O)(c1ccccc1)c1ccccn1)C(C)C (centres unmarked) [disopyramide]
resultNumber: 0.99
//
compound: CSc1ccc2c(c1)N(CCC1CCCCN1C)c1ccccc1S2 (centres unmarked)
resultNumber: 2.46
//
compound: CC1COc2c(N3CCN(C)CC3)c(F)cc3c(=O)c(C(=O)O)cn1c23 (centres unmarked)
resultNumber: 0.82
//
compound: CN(C)CCC=C1c2ccccc2CCc2ccccc21
resultNumber: 3.01

----------
- Tested on: flj22362
- testMethodNotes: Real-time quantitative PCR of PLsis marker gene expression
- Format: cell-based, human
- conditionContext: HepG2 cells, 24 hr exposure, relative value, control group = 1.0, GAPDH internal standard, n=3
// label = Fulfilled if expression variation rate flj22362 is not less than 2, otherwise Not fulfilled

compound: CSc1ccc2c(c1)N(CCC1CCCCN1C)c1ccccc1S2 (centres unmarked)
categoryLabel: Not fulfilled

compound: CC/C(=C(\c1ccccc1)c1ccc(OCCN(C)C)cc1)c1ccccc1
categoryLabel: Not fulfilled

compound: CN(C)C/C=C(/c1ccc(Br)cc1)c1cccnc1
categoryLabel: Not fulfilled

compound: CN1CCN(C(c2ccccc2)c2ccc(Cl)cc2)CC1 (centres unmarked)
categoryLabel: Fulfilled

compound: CN(C)CCC=C1c2ccccc2CCc2ccccc21
categoryLabel: Not fulfilled

compound: CC[C@H]1OC(=O)[C@H](C)[C@@H](O[C@H]2C[C@@](C)(OC)[C@@H](O)[C@H](C)O2)[C@H](C)[C@@H](O[C@@H]2O[C@H](C)C[C@H](N(C)C)[C@H]2O)[C@](C)(O)C[C@@H](C)C(=O)[C@H](C)[C@@H](O)[C@]1(C)O
categoryLabel: Not fulfilled

compound: CN[C@H]1CC[C@@H](c2ccc(Cl)c(Cl)c2)c2ccccc21
categoryLabel: Fulfilled

----------
- Test system: hpn
- testMethodNotes: Real-time quantitative PCR of PLsis marker gene expression
- Assay type: cell-based, human
- conditionContext: HepG2 cells, 24 hr exposure, relative value, control group = 1.0, GAPDH internal standard, n=3

compound: CNS(=O)(=O)Cc1ccc2[nH]cc(CCN(C)C)c2c1
expression variation rate hpn: 1.16

compound: CC[C@H]1OC(=O)[C@H](C)[C@@H](O[C@H]2C[C@@](C)(OC)[C@@H](O)[C@H](C)O2)[C@H](C)[C@@H](O[C@@H]2O[C@H](C)C[C@H](N(C)C)[C@H]2O)[C@](C)(O)C[C@@H](C)C(=O)[C@H](C)[C@@H](O)[C@]1(C)O
expression variation rate hpn: 0.87

compound: CC[C@H]1OC(=O)[C@H](C)[C@@H](O[C@H]2C[C@@](C)(OC)[C@@H](O)[C@H](C)O2)[C@H](C)[C@@H](O[C@@H]2O[C@H](C)C[C@H](N(C)C)[C@H]2O)[C@](C)(OC)C[C@@H](C)C(=O)[C@H](C)[C@@H](O)[C@]1(C)O
expression variation rate hpn: 0.96

compound: C1CCC(C(CC2CCCCN2)C2CCCCC2)CC1 (centres unmarked)
expression variation rate hpn: 2.22

compound: Cc1cc(NS(=O)(=O)c2ccc(N)cc2)no1
expression variation rate hpn: 0.89

compound: O=C(CCCN1CCC(O)(c2ccc(Cl)cc2)CC1)c1ccc(F)cc1
expression variation rate hpn: 1.43

compound: CN1CCN(C(c2ccccc2)c2ccc(Cl)cc2)CC1 (centres unmarked)
expression variation rate hpn: 2.97

compound: CC(=O)N1CCN(c2ccc(OCC3COC(Cn4ccnc4)(c4ccc(Cl)cc4Cl)O3)cc2)CC1 (centres unmarked)
expression variation rate hpn: 2.71

compound: CCCCc1oc2ccccc2c1C(=O)c1cc(I)c(OCCN(CC)CC)c(I)c1
expression variation rate hpn: 2.15

compound: N=C(N)c1ccc(OCCCCCOc2ccc(C(=N)N)cc2)cc1
expression variation rate hpn: 2.50

compound: CN(C)CCCN1c2ccccc2CCc2ccccc21
expression variation rate hpn: 2.32

compound: CNCCC(Oc1ccc(C(F)(F)F)cc1)c1ccccc1 (centres unmarked)
expression variation rate hpn: 2.39

compound: CSc1ccc2c(c1)N(CCC1CCCCN1C)c1ccccc1S2 (centres unmarked)
expression variation rate hpn: 2.85

compound: O=C(NCC1CCCCN1)c1cc(OCC(F)(F)F)ccc1OCC(F)(F)F (centres unmarked) [flecainide]
expression variation rate hpn: 1.26

compound: CCN(CC)CCNC(=O)c1ccc(N)cc1 [procainamide]
expression variation rate hpn: 1.08

compound: C[C@H]1COc2c(N3CCN(C)CC3)c(F)cc3c(=O)c(C(=O)O)cn1c23
expression variation rate hpn: 0.83

compound: CN[C@H]1CC[C@@H](c2ccc(Cl)c(Cl)c2)c2ccccc21
expression variation rate hpn: 3.07
